target-of-assay: T1, alpha-s1 casein from Bos taurus
T1 chain: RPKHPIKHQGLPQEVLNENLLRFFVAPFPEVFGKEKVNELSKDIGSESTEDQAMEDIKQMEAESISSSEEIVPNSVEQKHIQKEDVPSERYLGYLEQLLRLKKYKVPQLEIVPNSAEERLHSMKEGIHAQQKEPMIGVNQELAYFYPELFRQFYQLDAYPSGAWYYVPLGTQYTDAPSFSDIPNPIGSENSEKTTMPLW
Examples of proteins with documented αs1 CN, 6 hours, 11° C. follow.
Respond numerically; units are Volume and should not be typed.

Some solved cases for reference:
protein	display-unit	endpoint-result
camel chymosin variant #165 (L295W) (protein) GKVAREPLTSYLDSQYFGKIYIGTPPQEFTVVFDTGSSDLWVPSIYCKSNVCKNHHRFDPRKSSTFRNLGKPLSIHYGTGSMEGFLGYDTVTVSNIVDPNQTVGLSTEQPGEVFTYSEFDGILGLAYPSLASEYSVPVFDNMMDRHLVARDLFSVYMDRNGQGSMLTLGAIDPSYYTGSLHWVPVTLQQYWQFTVDSVTINGVAVACVGGCQAILDTGTSVLFGPSSDILKIQMAIGATENRYGEFDVNCGNLRSMPTVVFEINGRDYPLSPSAYTSKDQGFCTSGFQGDNNSEWWILGDVFIREYYSVFDRANNRVGLAKAI	Volume	2.12e+07
camel chymosin variant #153 (D290L) (protein) GKVAREPLTSYLDSQYFGKIYIGTPPQEFTVVFDTGSSDLWVPSIYCKSNVCKNHHRFDPRKSSTFRNLGKPLSIHYGTGSMEGFLGYDTVTVSNIVDPNQTVGLSTEQPGEVFTYSEFDGILGLAYPSLASEYSVPVFDNMMDRHLVARDLFSVYMDRNGQGSMLTLGAIDPSYYTGSLHWVPVTLQQYWQFTVDSVTINGVAVACVGGCQAILDTGTSVLFGPSSDILKIQMAIGATENRYGEFDVNCGNLRSMPTVVFEINGRDYPLSPSAYTSKDQGFCTSGFQGLNNSELWILGDVFIREYYSVFDRANNRVGLAKAI	Volume	2.36e+07
bovine chymosin B variant #6 (K221M) (protein) GEVASVPLTNYLDSQYFGKIYLGTPPQEFTVLFDTGSSDFWVPSIYCKSNACKNHQRFDPRKSSTFQNLGKPLSIHYGTGSMQGILGYDTVTVSNIVDIQQTVGLSTQEPGDVFTYAEFDGILGMAYPSLASEYSIPVFDNMMNRHLVAQDLFSVYMDRNGQESMLTLGAIDPSYYTGSLHWVPVTVQQYWQFTVDSVTISGVVVACEGGCQAILDTGTSMLVGPSSDILNIQQAIGATQNQYGEFDIDCDNLSYMPTVVFEINGKMYPLTPSAYTSQDQGFCTSGFQSENHSQKWILGDVFIREYYSVFDRANNLVGLAKAI	Volume	1.81e+07
camel chymosin variant #150 (Q288S) (protein) GKVAREPLTSYLDSQYFGKIYIGTPPQEFTVVFDTGSSDLWVPSIYCKSNVCKNHHRFDPRKSSTFRNLGKPLSIHYGTGSMEGFLGYDTVTVSNIVDPNQTVGLSTEQPGEVFTYSEFDGILGLAYPSLASEYSVPVFDNMMDRHLVARDLFSVYMDRNGQGSMLTLGAIDPSYYTGSLHWVPVTLQQYWQFTVDSVTINGVAVACVGGCQAILDTGTSVLFGPSSDILKIQMAIGATENRYGEFDVNCGNLRSMPTVVFEINGRDYPLSPSAYTSKDQGFCTSGFSGDNNSELWILGDVFIREYYSVFDRANNRVGLAKAI	Volume	2.87e+07
camel chymosin variant #159 (L295I) (protein) GKVAREPLTSYLDSQYFGKIYIGTPPQEFTVVFDTGSSDLWVPSIYCKSNVCKNHHRFDPRKSSTFRNLGKPLSIHYGTGSMEGFLGYDTVTVSNIVDPNQTVGLSTEQPGEVFTYSEFDGILGLAYPSLASEYSVPVFDNMMDRHLVARDLFSVYMDRNGQGSMLTLGAIDPSYYTGSLHWVPVTLQQYWQFTVDSVTINGVAVACVGGCQAILDTGTSVLFGPSSDILKIQMAIGATENRYGEFDVNCGNLRSMPTVVFEINGRDYPLSPSAYTSKDQGFCTSGFQGDNNSEIWILGDVFIREYYSVFDRANNRVGLAKAI	Volume	2.95e+07

INPUT: Fill in the blank: the reported αs1 CN, 6 hours, 11° C. of camel chymosin variant #149 (Q288R) (protein) GKVAREPLTSYLDSQYFGKIYIGTPPQEFTVVFDTGSSDLWVPSIYCKSNVCKNHHRFDPRKSSTFRNLGKPLSIHYGTGSMEGFLGYDTVTVSNIVDPNQTVGLSTEQPGEVFTYSEFDGILGLAYPSLASEYSVPVFDNMMDRHLVARDLFSVYMDRNGQGSMLTLGAIDPSYYTGSLHWVPVTLQQYWQFTVDSVTINGVAVACVGGCQAILDTGTSVLFGPSSDILKIQMAIGATENRYGEFDVNCGNLRSMPTVVFEINGRDYPLSPSAYTSKDQGFCTSGFRGDNNSELWILGDVFIREYYSVFDRANNRVGLAKAI is ____.
OUTPUT: 2.22e+07

INPUT: Fill in the blank: the reported αs1 CN, 6 hours, 11° C. of camel chymosin variant #148 (Q288N) (protein) GKVAREPLTSYLDSQYFGKIYIGTPPQEFTVVFDTGSSDLWVPSIYCKSNVCKNHHRFDPRKSSTFRNLGKPLSIHYGTGSMEGFLGYDTVTVSNIVDPNQTVGLSTEQPGEVFTYSEFDGILGLAYPSLASEYSVPVFDNMMDRHLVARDLFSVYMDRNGQGSMLTLGAIDPSYYTGSLHWVPVTLQQYWQFTVDSVTINGVAVACVGGCQAILDTGTSVLFGPSSDILKIQMAIGATENRYGEFDVNCGNLRSMPTVVFEINGRDYPLSPSAYTSKDQGFCTSGFNGDNNSELWILGDVFIREYYSVFDRANNRVGLAKAI is ____.
OUTPUT: 2.83e+07

INPUT: Fill in the blank: the reported αs1 CN, 6 hours, 11° C. of camel chymosin variant #151 (D290A) (protein) GKVAREPLTSYLDSQYFGKIYIGTPPQEFTVVFDTGSSDLWVPSIYCKSNVCKNHHRFDPRKSSTFRNLGKPLSIHYGTGSMEGFLGYDTVTVSNIVDPNQTVGLSTEQPGEVFTYSEFDGILGLAYPSLASEYSVPVFDNMMDRHLVARDLFSVYMDRNGQGSMLTLGAIDPSYYTGSLHWVPVTLQQYWQFTVDSVTINGVAVACVGGCQAILDTGTSVLFGPSSDILKIQMAIGATENRYGEFDVNCGNLRSMPTVVFEINGRDYPLSPSAYTSKDQGFCTSGFQGANNSELWILGDVFIREYYSVFDRANNRVGLAKAI is ____.
OUTPUT: 2.31e+07
